Could you please report measured Kp uu for the items listed next?
Assay: in vivo
Settings: rat
# respond with the number and nothing more

Input line: Request the reported Kp uu associated with COc1ccc2[nH]c([S+]([O-])Cc3ncc(C)c(OC)c3C)nc2c1 (stereo not drawn) [Omeprazole]
Output line: 1.09

Input line: State the recorded Kp uu for this entry: CC(C)(C)NCC(O)c1ccc(O)c(CO)c1 (stereo not drawn) [Salbutamol]
Output line: 0.01

Input line: May I ask what Kp uu has been recorded for COc1ccc2[nH]cc(CCNC(C)=O)c2c1 [Melatonin] ?
Output line: 0.575

Input line: Find the recorded Kp uu belonging to Cc1cccc([C@H](C)c2cnc[nH]2)c1C [Dexmedetomidine] and report it.
Output line: 2.21

Input line: Param item = Cn1c(=O)c2c(ncn2C)n(C)c1=O [Caffeine] ; retrieve measured Kp uu.
Output line: 0.576

* * *

Assay: Bidirectional transport across LLC-PK1 MOCK monolayer (Transwell)
Details: pig, LLC-PK1 MOCK cell monolayer (Transwell), pH 7.4, Recovery after correction of intracellular accumulation data, A-B, LLC-PK1 MOCK, cell lysate included, mean±SD, n=3
measured endpoint: recovery at 2 h, 2 µM (%)
Number only, in %; omit the unit.

Input line: Could you share which recovery at 2 h, 2 µM value was measured for `CN(C)CCC=C1c2ccccc2CCc2ccccc21` ?
Output line: 80

Input line: Which recovery at 2 h, 2 µM value belongs to `Fc1ccc([C@@H]2CCNC[C@H]2COc2ccc3c(c2)OCO3)cc1` ?
Output line: 97.6

* * *

Test: in vivo
Details: rat, Kp,uu,Brian
measured endpoint: Kp
// return a plain number; no unit text

Input line: Name the recorded Kp for Fc1ccc([C@@H]2CCNC[C@H]2COc2ccc3c(c2)OCO3)cc1 [Paroxetine] .
Output line: 1.57

* * *

For each entry below, report its Papp B→A at 2 h, 2 µM value.
Experiment: Bidirectional transport across LLC-PK1 MOCK monolayer (Transwell);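 also: compound quantified by LC-MS/MS in donor and receiver wells, efflux ratio as B-A over A-B Papp, recovery relative to initial donor amount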
Conditions: pig, LLC-PK1, pH 7.4
A number alone suffices; assume ×10⁻⁶ cm/s.

Input line: # query: Papp B→A at 2 h, 2 µM of entry CC(C)NCC(O)COc1cccc2ccccc12 (centres unmarked)
Output line: 20.1

Input line: What value of Papp B→A at 2 h, 2 µM has been reported for the following molecule? `CCN(CC)CCNC(=O)c1c(C)[nH]c(/C=C2\C(=O)Nc3ccc(F)cc32)c1C`
Output line: 6.21

Input line: Fill in: Papp B→A at 2 h, 2 µM of `CN(C)CCC=C1c2ccccc2CCc2ccccc21` is ___
Output line: 13.8

Input line: Give the measured Papp B→A at 2 h, 2 µM of `Cn1c(=O)c2c(ncn2C)n(C)c1=O` .
Output line: 34.1

Input line: What does the data say about its Papp B→A at 2 h, 2 µM? Entry: `COc1ccc2cc1Oc1ccc(cc1)C[C@H]1c3cc(c(OC)cc3CCN1C)Oc1c(OC)c(OC)cc3c1[C@H](C2)N(C)CC3`
Output line: 4.19

Input line: Tell me the measured Papp B→A at 2 h, 2 µM of `COc1ccc2c(c1)[C@]13CCCC[C@@H]1[C@H](C2)N(C)CC3` , please.
Output line: 25.9

Input line: Requested read-out: Papp B→A at 2 h, 2 µM. Entry: `CCC1(c2cnc[nH]2)Cc2ccccc2C1`
Output line: 30.2

Input line: Recorded Papp B→A at 2 h, 2 µM for `Fc1ccc([C@@H]2CCNC[C@H]2COc2ccc3c(c2)OCO3)cc1` , please?
Output line: 14.8

Input line: For the molecule shown here, `COc1ccc2[nH]cc(CCNC(C)=O)c2c1` , give the reported Papp B→A at 2 h, 2 µM.
Output line: 20.6

Input line: What value of Papp B→A at 2 h, 2 µM has been reported for the following molecule? `Cc1ncc2n1-c1ccc(Cl)cc1C(c1ccccc1F)=NC2`
Output line: 31.6

Input line: Recorded Papp B→A at 2 h, 2 µM of Cc1cc(=O)n(-c2ccccc2)n1C [Antipyrine] , please.
Output line: 23.6

Input line: # query: Papp B→A at 2 h, 2 µM of entry `Cc1cccc([C@H](C)c2cnc[nH]2)c1C`
Output line: 35.2

Input line: Field request: Papp B→A at 2 h, 2 µM | item: `COc1ccc2c(c1)c(CC(=O)O)c(C)n2C(=O)c1ccc(Cl)cc1`
Output line: 18.9

Input line: Bench note: what Papp B→A at 2 h, 2 µM did `COc1cccc2c1C(=O)c1c(O)c3c(c(O)c1C2=O)C[C@@](O)(C(=O)CO)C[C@@H]3O[C@H]1C[C@H](N)[C@H](O)[C@H](C)O1` show?
Output line: 0.09

Input line: Looking for the measured Papp B→A at 2 h, 2 µM of CC(NC(C)(C)C)C(=O)c1cccc(Cl)c1 (centres unmarked) , can you help?
Output line: 23.8

Input line: Can you share its Papp B→A at 2 h, 2 µM? I mean this molecule: COc1cc([C@@H]2c3cc4c(cc3[C@@H](O[C@@H]3O[C@@H]5CO[C@@H](C)O[C@H]5[C@H](O)[C@H]3O)[C@H]3COC(=O)[C@H]23)OCO4)cc(OC)c1O [Etoposide]
Output line: 0.16

Input line: Need Papp B→A at 2 h, 2 µM, item COc1cccc(C2(O)CCCCC2CN(C)C)c1 (centres unmarked)
Output line: 23.3

Input line: // Papp B→A at 2 h, 2 µM lookup, key: CC(C)(C)NCC(O)c1ccc(O)c(CO)c1 (centres unmarked)
Output line: 0.21

Input line: So what's the measured Papp B→A at 2 h, 2 µM for this one? COCCOC(=O)C1=C(C)NC(C)=C(C(=O)OC(C)C)C1c1cccc([N+](=O)[O-])c1 (centres unmarked)
Output line: 46.2

Input line: I am curious: what Papp B→A at 2 h, 2 µM value has been reported for NC(=O)C[S+]([O-])C(c1ccccc1)c1ccccc1 (centres unmarked) ?
Output line: 15.6

Input line: What value of Papp B→A at 2 h, 2 µM has been reported for the following molecule? `C[C@H]1O[C@@H](O[C@H]2[C@@H](O)C[C@H](O[C@H]3[C@@H](O)C[C@H](O[C@H]4CC[C@@]5(C)[C@H](CC[C@@H]6[C@@H]5C[C@@H](O)[C@]5(C)[C@@H](C7=CC(=O)OC7)CC[C@]65O)C4)O[C@@H]3C)O[C@@H]2C)C[C@H](O)[C@@H]1O`
Output line: 1.75

Input line: Need Papp B→A at 2 h, 2 µM, item `CN/C(=N/CCSCc1nc[nH]c1C)NC#N`
Output line: 0.28

Input line: Look at this molecule and give its reported Papp B→A at 2 h, 2 µM. COCCc1ccc(OCC(O)CNC(C)C)cc1 (centres unmarked)
Output line: 24

Input line: For COc1ccc2[nH]c([S+]([O-])Cc3ncc(C)c(OC)c3C)nc2c1 (centres unmarked) , what is its reported Papp B→A at 2 h, 2 µM?
Output line: 28.9

Input line: Reported Papp B→A at 2 h, 2 µM for `C=C[C@H]1C[N@@]2CC[C@H]1C[C@@H]2[C@@H](O)c1ccnc2ccc(OC)cc12` : what is it?
Output line: 17.2

Input line: Can you look up the measured Papp B→A at 2 h, 2 µM of `CC[C@]1(O)C[C@@H]2CN(CCc3c([nH]c4ccccc34)[C@@](C(=O)OC)(c3cc4c(cc3OC)N(C)[C@H]3[C@@](O)(C(=O)OC)[C@H](OC(C)=O)[C@]5(CC)C=CCN6CC[C@]43[C@@H]65)C2)C1` for me?
Output line: 4.16

* * *

Experiment: LLC-PK1 MOCK/MDR1 monolayer model, results stated for both cell lines jointly
Conditions: pig, LLC-PK1 MOCK and LLC-PK1-MDR1 cell monolayers (Transwell), pH 7.4, Recovery after cell lysate extraction, intracellular drug included
Kindly state recovery at 2 µM for each of the entries shown.

Input line: Would you kindly share the measured recovery at 2 µM for `CCN(CC)CCNC(=O)c1c(C)[nH]c(/C=C2\C(=O)Nc3ccc(F)cc32)c1C` ?
Output line: > 80%

Input line: Which value of recovery at 2 µM has been reported for `CN(C)CCC=C1c2ccccc2CCc2ccccc21` in the records?
Output line: > 80%

Input line: Requested field: recovery at 2 µM. Item: `Fc1ccc([C@@H]2CCNC[C@H]2COc2ccc3c(c2)OCO3)cc1`
Output line: > 80%

* * *

Tested on: P-gp (human MDR1)
Experiment: Bidirectional transport across LLC-PK1-MDR1 monolayer stably expressing human MDR1 (P-gp) (Transwell);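 also: 2 h incubation at 37 °C, receiver HBSS with 10 mM Hepes plus 1% BSA, LC-MS/MS of donor and receiver, recovery as receiver plus donor amount over initial donor amount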
Details: pig, LLC-PK1, pH 7.4
Kindly supply the reported Papp B→A at 2 h, 2 µM values for the records listed here.
Express the result in ×10⁻⁶ cm/s but write the number alone.

Input line: Record Cc1ncc2n1-c1ccc(Cl)cc1C(c1ccccc1F)=NC2 [Midazolam] : what is its Papp B→A at 2 h, 2 µM with P-gp (human MDR1)?
Output line: 27

Input line: GET /values?readout=Papp B→A at 2 h, 2 µM&system=P-gp (human MDR1)&item= Fc1ccc([C@@H]2CCNC[C@H]2COc2ccc3c(c2)OCO3)cc1 [Paroxetine]
Output line: 10.9

Input line: P-gp (human MDR1) / Papp B→A at 2 h, 2 µM / COc1cccc(C2(O)CCCCC2CN(C)C)c1 (stereo not drawn) [Tramadol] : value?
Output line: 25.2

Input line: Give recorded Papp B→A at 2 h, 2 µM with P-gp (human MDR1) for the following molecule: CN(Cc1cnc2nc(N)nc(N)c2n1)c1ccc(C(=O)N[C@@H](CCC(=O)O)C(=O)O)cc1 [Methotrexate]
Output line: 0.45

Input line: State its Papp B→A at 2 h, 2 µM on P-gp (human MDR1): CC(C)NCC(O)COc1cccc2ccccc12 (stereo not drawn) [Propranolol]
Output line: 16.1

Input line: API: value(readout=Papp B→A at 2 h, 2 µM, system=P-gp (human MDR1)) for record CCN(CC)CCNC(=O)c1c(C)[nH]c(/C=C2\C(=O)Nc3ccc(F)cc32)c1C [Sunitinib]
Output line: 21.8

Input line: Field: Papp B→A at 2 h, 2 µM (P-gp (human MDR1)). Entry: CN/C(=N/CCSCc1nc[nH]c1C)NC#N [Cimetidine]
Output line: 33.9

Input line: Hello, I am looking for reported Papp B→A at 2 h, 2 µM with P-gp (human MDR1) for CC[C@]1(O)C[C@@H]2CN(CCc3c([nH]c4ccccc34)[C@@](C(=O)OC)(c3cc4c(cc3OC)N(C)[C@H]3[C@@](O)(C(=O)OC)[C@H](OC(C)=O)[C@]5(CC)C=CCN6CC[C@]43[C@@H]65)C2)C1 [Vinblastine] . Could you help?
Output line: 20.4

Input line: Record Cn1c(=O)c2c(ncn2C)n(C)c1=O [Caffeine] : what is its Papp B→A at 2 h, 2 µM with P-gp (human MDR1)?
Output line: 33.3
